test system: Trypanosoma cruzi; assay: Inhibitory concentration against Trypomastigotes (Y strain) of Trypanosoma cruzi; type: functional, organism-based; settings: Trypanosoma cruzi; read-out: IC50
pIC50: −log10 of the molar value.
Reported Metric: pIC50

INSERT INTO measurements (compound, subject_of_test, endpoint_result) VALUES
  ('OC1(Cc2ccc(Cl)cc2)c2ccccc2C2=NCCN21 (stereo unspecified)', 'Trypanosoma cruzi', 5.10);
